test.system: D(2) dopamine receptor (Homo sapiens, UniProt P14416)
Sequence (P14416 whole entry): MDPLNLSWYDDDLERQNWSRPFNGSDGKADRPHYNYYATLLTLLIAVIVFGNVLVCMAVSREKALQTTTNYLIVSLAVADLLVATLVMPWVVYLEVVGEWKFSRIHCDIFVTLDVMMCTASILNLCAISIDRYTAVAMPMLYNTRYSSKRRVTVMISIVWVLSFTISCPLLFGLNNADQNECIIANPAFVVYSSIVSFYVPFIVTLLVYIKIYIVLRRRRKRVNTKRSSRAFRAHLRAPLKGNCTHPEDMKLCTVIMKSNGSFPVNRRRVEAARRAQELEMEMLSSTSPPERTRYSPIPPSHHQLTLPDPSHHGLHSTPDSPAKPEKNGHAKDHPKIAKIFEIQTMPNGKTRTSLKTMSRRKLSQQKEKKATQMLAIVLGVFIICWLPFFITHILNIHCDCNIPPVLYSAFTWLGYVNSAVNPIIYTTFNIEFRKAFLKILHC
test.protocol: Displacement of [3H]N-methylspiperone from Dopamine D2 receptor (unknown origin) expressed in HEK293T cell membrane incubated for 2 hrs by radioligand competitive binding based MicroBeta TriLux reader method
Assay type: cell membranes
test.context: read-out: Ki
Below: a set of entries, each annotated with reported Ki.
Respond with the bare value in nM.

Record excerpt, results attached:
molecule: O=C1CCc2ccc(OCCCCNCc3cc4ccccc4o3)cc2N1
Ki / nM: 582
--
molecule: CCOc1cccc2cc(CNCCCOc3ccc4c(c3)NC(=O)CC4)oc12
Ki / nM: 109
--
molecule: CCOc1cccc2cc(CNCCCCOc3ccc4oc(C)nc4c3)oc12
Ki / nM: 935
--
molecule: CCOc1cccc2cc(CNCCCCCOc3ccc4c(c3)NC(=O)CC4)oc12
Ki / nM: 439
--
molecule: COc1cccc2c3c(oc12)CN(CCCCOc1ccc2cccnc2c1)CC3
Ki / nM: 1340
--
molecule: CCOc1cccc2cc(CNCC[C@H]3CC[C@H](NC(=O)N(C)C)CC3)oc12
Ki / nM: 99.3
--
molecule: CCOc1cccc2cc(CNCC[C@H]3CC[C@H](NC(=O)C4CC4)CC3)oc12
Ki / nM: 62.8
--
molecule: COc1cccc2cc(CNCCCCOc3ccc4c(c3)NC(=O)CC4)oc12
Ki / nM: 33.3

Incoming: Entry under review: `COc1cccc2c3c(oc12)CN(CCCCOc1ccc2c(c1)NC(=O)C2)CC3` . Reported Ki?
Outgoing: 3190

Incoming: Entry under review: `CCOc1cccc2cc(CNCC[C@H]3CC[C@H](NC(=O)N4CCCC4)CC3)oc12` . Reported Ki?
Outgoing: 67.9

Incoming: Entry under review: `COc1cccc2cc(CNCCCOc3ccc4ccc(=O)[nH]c4c3)sc12` . Reported Ki?
Outgoing: 181

Incoming: Entry under review: `CCOc1cccc2cc(CNCCCCOc3ccc4ccc(=O)[nH]c4c3)oc12` . Reported Ki?
Outgoing: 0.12

Incoming: Entry under review: CCOc1cccc2cc(C(C)NCC3(O)CCCCC3)oc12 (stereo not given) . Reported Ki?
Outgoing: 2130

Incoming: Entry under review: `O=c1ccc2ccc(OCCCCNCc3cc4ccccc4o3)cc2[nH]1` . Reported Ki?
Outgoing: 239

Incoming: Entry under review: `COc1cccc2c3c(oc12)CN(CCCCOc1ccc2ccc(=O)n(C)c2c1)CC3` . Reported Ki?
Outgoing: 2280

====

test.protocol: Drug concentration in C57BL/6J mouse plasma at 5 mg/kg,ip measured at 2 hrs by LC-MS analysis
Type: ADME, organism-based
test.context: in vivo
endpoint.name: log10(Cp) (log10 of the value in ng/mL)
The base-10 logarithm of Cp, taken with Cp in ng/mL, is what appears here.

Record excerpt, results attached:
compound.smiles: COc1cccc2c3c(oc12)CN(CCCCOc1ccc2ccc(=O)[nH]c2c1)CC3
log10(Cp): 2.60
//
compound.smiles: CCOc1cccc2cc(CNCCCCOc3ccc4ccc(=O)[nH]c4c3)oc12
log10(Cp): 1.73
//
compound.smiles: COc1cccc2cc(CNCCCCOc3ccc4c(c3)NC(=O)CC4)oc12
log10(Cp): 1.03

Incoming: Entry under review: `COc1cccc2cc(CNCCCCOc3ccc4ccc(=O)[nH]c4c3)oc12` . Reported log10(Cp)?
Outgoing: 0.84

Incoming: Entry under review: `COc1cccc2c3c(oc12)CN(CCCCOc1ccc2c(c1)NC(=O)CC2)CC3` . Reported log10(Cp)?
Outgoing: 2.76

Incoming: Entry under review: `CCOc1cccc2cc(CNCCCCOc3ccc4c(c3)NC(=O)CC4)oc12` . Reported log10(Cp)?
Outgoing: 1.73

====

test.protocol: Ratio of drug concentration in brain to plasma in C57BL/6J mouse at 5 mg/kg,ip measured at 0.5 hrs by LC-MS analysis
Format: ADME, organism-based
test.context: read-out: BPR
endpoint.name: Kp at 0.5 h

compound.smiles: COc1cccc2cc(CNCCCCOc3ccc4c(c3)NC(=O)CC4)oc12
reported.measurement: 0.183
//
compound.smiles: CCOc1cccc2cc(CNCCCCOc3ccc4c(c3)NC(=O)CC4)oc12
reported.measurement: 0.142
//
compound.smiles: COc1cccc2c3c(oc12)CN(CCCCOc1ccc2c(c1)NC(=O)CC2)CC3
reported.measurement: 0.759
//
compound.smiles: CCOc1cccc2cc(CNCCCCOc3ccc4ccc(=O)[nH]c4c3)oc12
reported.measurement: 0.061

Incoming: Entry under review: `COc1cccc2cc(CNCCCCOc3ccc4ccc(=O)[nH]c4c3)oc12` . Reported Kp at 0.5 h?
Outgoing: 0.118

====

test.protocol: Drug concentration in C57BL/6J mouse plasma at 5 mg/kg,ip measured at 0.5 hrs by LC-MS analysis
Type: ADME, organism-based
test.context: in vivo
Below: a set of entries, each annotated with reported Cp.

Record excerpt, results attached:
compound.smiles: COc1cccc2cc(CNCCCCOc3ccc4c(c3)NC(=O)CC4)oc12
endpoint.name: Cp
reported.measurement: 331 ng/mL

compound.smiles: COc1cccc2c3c(oc12)CN(CCCCOc1ccc2c(c1)NC(=O)CC2)CC3
endpoint.name: Cp
reported.measurement: 540 ng/mL

compound.smiles: COc1cccc2cc(CNCCCCOc3ccc4ccc(=O)[nH]c4c3)oc12
endpoint.name: Cp
reported.measurement: 272 ng/mL

Incoming: Entry under review: `CCOc1cccc2cc(CNCCCCOc3ccc4ccc(=O)[nH]c4c3)oc12` . Reported Cp?
Outgoing: 792 ng/mL

====

test.protocol: Oral bioavailability in Sprague-Dawley rat at 10 mg/kg measured upto 24 hrs by LC-MS analysis
Type: ADME, organism-based
test.context: in vivo
endpoint.name: bioavailability (%)
Respond with the bare value in %.

Incoming: Entry under review: `COc1cccc2c3c(oc12)CN(CCCCOc1ccc2ccc(=O)[nH]c2c1)CC3` . Reported bioavailability?
Outgoing: 88.8

====

test.system: D(2) dopamine receptor (Homo sapiens)
test.protocol: Displacement of [3H]N-methylspiperone from Dopamine D2 receptor (unknown origin) expressed in HEK293T cell membrane incubated for 2 hrs by radioligand competitive binding based MicroBeta TriLux reader method
Assay type: cell membranes
test.context: read-out: pKi (converted)
Classify: y when Ki is strictly less than 400 nM; n when Ki is not.

Field: example entries. Status: answers known.
compound.smiles: CCOc1cccc2cc(CNCCCCOc3ccc4ccc(=O)[nH]c4c3)oc12
cat: y
//
compound.smiles: CCOc1cccc2cc(CNCC[C@H]3CC[C@H](NC(=O)N4CCCC4)CC3)oc12
cat: y

Incoming: Bench note: check whether `COc1cccc2cc(CNCCCCOc3ccc4c(c3)NC(=O)CC4)oc12` shows Ki below 400 nM
Outgoing: y

Incoming: Bench note: check whether `COc1cccc2c3c(oc12)CN(CCCCOc1ccc2c(c1)NC(=O)C2)CC3` shows Ki below 400 nM
Outgoing: n

Incoming: Bench note: check whether `CCOc1cccc2cc(CNCCCCOc3ccc4oc(C)nc4c3)oc12` shows Ki below 400 nM
Outgoing: n

Incoming: Bench note: check whether `CCOc1cccc2cc(CNCCCCCOc3ccc4c(c3)NC(=O)CC4)oc12` shows Ki below 400 nM
Outgoing: n

====

test.protocol: Drug concentration in C57BL/6J mouse brain at 5 mg/kg,ip measured at 0.5 hrs by LC-MS analysis
Format: ADME, organism-based
test.context: read-out: Ct
Below: a set of entries, each annotated with reported concentration at 0.5 h.
Respond with the bare value in ng/mL.

Record excerpt, results attached:
compound.smiles: CCOc1cccc2cc(CNCCCCOc3ccc4c(c3)NC(=O)CC4)oc12
concentration at 0.5 h (ng/mL): 168

compound.smiles: COc1cccc2c3c(oc12)CN(CCCCOc1ccc2c(c1)NC(=O)CC2)CC3
concentration at 0.5 h (ng/mL): 410

compound.smiles: CCOc1cccc2cc(CNCCCCOc3ccc4ccc(=O)[nH]c4c3)oc12
concentration at 0.5 h (ng/mL): 48.3

compound.smiles: COc1cccc2cc(CNCCCCOc3ccc4ccc(=O)[nH]c4c3)oc12
concentration at 0.5 h (ng/mL): 32.1

Incoming: Entry under review: `COc1cccc2cc(CNCCCCOc3ccc4c(c3)NC(=O)CC4)oc12` . Reported concentration at 0.5 h?
Outgoing: 60.7

====

test.system: D(2) dopamine receptor (Homo sapiens, UniProt P14416)
test.protocol: Partial agonist activity at Dopamine D2 receptor (unknown origin) expressed in HEK293T coexpressing beta-arrestin-2 assessed as increase in cAMP accumulation incubated for 5 mins by beta-arrestin recruitment based BRET assay
Assay type: functional, cell-based
test.context: read-out: EC50
Below: a set of entries, each annotated with reported EC50.
Respond with the bare value in nM.

compound.smiles: CCOc1cccc2cc(CNCCCOc3ccc4c(c3)NC(=O)CC4)oc12
endpoint.name: EC50
reported.measurement: 12.2

compound.smiles: O=C1CCc2ccc(OCCCCNCc3cc4ccccc4o3)cc2N1
endpoint.name: EC50
reported.measurement: 7.29

Now, please, on to the next molecule.
Incoming: Entry under review: `CCOc1cccc2cc(CNCC[C@H]3CC[C@H](NC(=O)N4CCCC4)CC3)oc12` . Reported EC50?
Outgoing: 6.2
